# Target or test system: Human M4 (Homo sapiens)
# Construct: Human or rat M4 cDNA, along with the chimeric G protein Gq,5, were transfected into Chinese hamster ovary (CHO-K1) cells
# Protocol summary: mAChR M4 cell-based functional assay (calcium flux, decrease of EC80 acetylcholine response)
# Test conditions: CHO-K1 cells with human M4 and Gqi5; EC80 acetylcholine
Measured quantity: pIC50
Would you please state pIC50, meaning minus log10 of the concentration in mol/L, as a bare number?

Kindly state the measured pIC50 obtained for CC(c1ccccn1)N1C[C@H]2C[C@H](Nc3ccc(-c4cc(F)cc(F)c4F)nn3)C[C@H]2C1 (stereo partly shown) with Human M4 (Homo sapiens).
7.13

Kindly state the measured pIC50 obtained for [2H]C([2H])(COCC)N1C[C@H]2C[C@H](Nc3ccc(-c4cc(F)cc(F)c4F)nn3)C[C@H]2C1 with Human M4 (Homo sapiens).
6.92

Kindly state the measured pIC50 obtained for Fc1cc(F)c(F)c(-c2ccc(N[C@H]3C[C@@H]4CN(Cc5cc6n(n5)CCOC6)C[C@@H]4C3)nn2)c1 with Human M4 (Homo sapiens).
8.65

Kindly state the measured pIC50 obtained for Fc1cc(F)c(F)c(-c2ccc(N[C@H]3C[C@@H]4CN(C[C@H]5[C@@H]6COC[C@@H]65)C[C@@H]4C3)nn2)c1 with Human M4 (Homo sapiens).
9.33

Kindly state the measured pIC50 obtained for [2H]C1([2H])[C@H](Nc2ccc(-c3cc(F)cc(F)c3F)nn2)C([2H])([2H])[C@H]2CN(CC3CCOCC3)C[C@H]21 with Human M4 (Homo sapiens).
8.36

Kindly state the measured pIC50 obtained for [2H]C([2H])([C@H]1CCOC1)N1C[C@H]2C[C@H](Nc3ccc(-c4cc(F)cc(F)c4F)nn3)C[C@H]2C1 with Human M4 (Homo sapiens).
7.19

Kindly state the measured pIC50 obtained for [2H]C(C)(N1C[C@H]2C[C@H](Nc3ccc(-c4cc(F)cc(F)c4F)nn3)C[C@H]2C1)C1(C)CCOCC1 (stereo partly shown) with Human M4 (Homo sapiens).
6.85

Kindly state the measured pIC50 obtained for Fc1cc(F)c(F)c(-c2ccc(N[C@H]3C[C@@H]4CN(CC5CCSCC5)C[C@@H]4C3)nn2)c1 with Human M4 (Homo sapiens).
8.40

Kindly state the measured pIC50 obtained for COCCCN1C[C@H]2C[C@H](Nc3ccc(-c4cc(F)cc(F)c4F)nn3)C[C@H]2C1 with Human M4 (Homo sapiens).
7.10

Kindly state the measured pIC50 obtained for Fc1cc(F)c(F)c(-c2ccc(N[C@@H]3C[C@H]4CN(CC5CCOCC5)C[C@H]4[C@@H]3F)nn2)c1 (racemic) with Human M4 (Homo sapiens).
8.51

Kindly state the measured pIC50 obtained for OC1(CN2C[C@H]3C[C@H](Nc4ccc(-c5cc(F)cc(F)c5F)nn4)C[C@H]3C2)CCCCC1 with Human M4 (Homo sapiens).
8.22

Kindly state the measured pIC50 obtained for Fc1cc(F)c(F)c(-c2ccc(N[C@H]3C[C@@H]4CN(Cc5ccccn5)C[C@@H]4C3)nn2)c1 with Human M4 (Homo sapiens).
7.68

Kindly state the measured pIC50 obtained for Fc1cc(F)c(F)c(-c2ccc(N[C@H]3C[C@@H]4CN(C[C@H]5CCOC5)C[C@@H]4C3)nn2)c1 with Human M4 (Homo sapiens).
7.20

###

For each record, write down the corresponding IC50.
# Target or test system: Human M4 (Homo sapiens, UniProt P08173)
# Construct: Human or rat M4 cDNA, along with the chimeric G protein Gq,5, were transfected into Chinese hamster ovary (CHO-K1) cells
# Sequence (P08173 1-479): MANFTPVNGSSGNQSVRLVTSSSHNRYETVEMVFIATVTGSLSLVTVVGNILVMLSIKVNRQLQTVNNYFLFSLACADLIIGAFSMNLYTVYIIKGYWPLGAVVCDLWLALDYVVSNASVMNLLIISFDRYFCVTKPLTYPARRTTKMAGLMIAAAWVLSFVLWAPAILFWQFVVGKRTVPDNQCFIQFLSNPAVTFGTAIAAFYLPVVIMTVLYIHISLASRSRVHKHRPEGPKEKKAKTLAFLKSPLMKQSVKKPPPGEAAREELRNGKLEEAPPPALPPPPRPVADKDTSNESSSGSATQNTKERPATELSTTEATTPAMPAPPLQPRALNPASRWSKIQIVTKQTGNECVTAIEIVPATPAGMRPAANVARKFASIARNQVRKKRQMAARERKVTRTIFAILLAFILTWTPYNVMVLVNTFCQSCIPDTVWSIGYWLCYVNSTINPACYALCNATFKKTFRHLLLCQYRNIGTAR
# Protocol summary: mAChR M4 cell-based functional assay (calcium flux, decrease of EC80 acetylcholine response)
# Test conditions: CHO-K1 cells with human M4 and Gqi5; EC80 acetylcholine
Output spec: scalar in nM, unitless text.

What measured IC50 goes with Fc1ccc(CN2C[C@H]3C[C@H](Nc4ccc(-c5cc(F)cc(F)c5F)nn4)C[C@H]3C2)c(F)c1 [Compound 91] ?
360

What measured IC50 goes with OC1(CN2C[C@H]3C[C@H](Nc4ccc(-c5cc(F)cc(F)c5F)nn4)C[C@H]3C2)CCCCCC1 [Compound 62] ?
3300

What measured IC50 goes with [2H]C([2H])([C@H]1CCCCO1)N1C[C@H]2C[C@H](Nc3ccc(-c4cc(F)cc(F)c4F)nn3)C[C@H]2C1 [Compound 40] ?
1.48

What measured IC50 goes with [2H]C([2H])(C1CCCOCC1)N1C[C@H]2C[C@H](Nc3ccc(-c4cc(F)cc(F)c4F)nn3)C[C@H]2C1 (stereo partly shown) [Compound 78] ?
1.2

What measured IC50 goes with CC(N1C[C@H]2C[C@H](Nc3ccc(-c4cc(F)cc(F)c4F)nn3)C[C@H]2C1)C1(C)CCOCC1 (stereo partly shown) [Compound 46] ?
58.9

What measured IC50 goes with [2H]C([2H])(CC1COC1)N1C[C@H]2C[C@H](Nc3ccc(-c4cc(F)cc(F)c4F)nn3)C[C@H]2C1 [Compound 85] ?
66

What measured IC50 goes with Fc1cc(F)c(F)c(-c2ccc(N[C@H]3C[C@@H]4CN(C5CCCCC5)C[C@@H]4C3)nn2)c1 [Compound 34] ?
38.7

What measured IC50 goes with OC1CCCCC1N1C[C@H]2C[C@H](Nc3ccc(-c4cc(F)cc(F)c4F)nn3)C[C@H]2C1 (stereo partly shown) [Compound 65] ?
350

What measured IC50 goes with Fc1cc(F)c(F)c(-c2ccc(N[C@H]3C[C@@H]4CN(CCC5CCOCC5)C[C@@H]4C3)nn2)c1 [Compound 4] ?
3.09

What measured IC50 goes with Fc1cc(F)c(F)c(-c2ccc(N[C@H]3C[C@@H]4CN(CC5CC56CCOCC6)C[C@@H]4C3)nn2)c1 (stereo partly shown) [Compound 72] ?
2.1

What measured IC50 goes with OC1(CN2C[C@H]3C[C@H](Nc4ccc(-c5cc(F)cc(F)c5F)nn4)C[C@H]3C2)CCCC1 [Compound 61] ?
2.3

What measured IC50 goes with Fc1cc(F)c(F)c(-c2ccc(N[C@H]3C[C@@H]4CN(Cc5cccc(F)c5F)C[C@@H]4C3)nn2)c1 [Compound 90] ?
960

What measured IC50 goes with CC(C)C(O)CN1C[C@H]2C[C@H](Nc3ccc(-c4cc(F)cc(F)c4F)nn3)C[C@H]2C1 (stereo partly shown) [Compound 64] ?
7.3

meta.source: patent US20230150986A1
